- assay.method.text: clinical
- condition.notes: human, plasma, oral, 1800 mg, Tmax Median, Part 1 Cohort 5, 1800 mg QD, Cycle 1 Day 14
endpoint.name: Tmax
Respond with the figure and its unit, in that order.

The measured Tmax associated with CCCCCCCCCCCCCCCC(=O)NCCCC[C@@H](N)C(=O)NCCCNCCCCNCCCN reads 6 h

###

- assay.method.text: MALDI-FTICR imaging quantitation of DFMO in whole-body sections of Th-MYCN mice
- Assay type: in vivo, mouse
- condition.notes: male, Th-MYCN, mouse, tumor, oral, 1 % in drinking water, DFMO in Tumor, DFMO alone 1% in drinking water; mice 049, 082; 96 h
endpoint.name: concentration at 96 h (ng/g)
Please state the figure in ng/g; there is no need to write the unit.

The measured concentration at 96 h associated with NCCCC(N)(C(=O)O)C(F)F (stereo not shown) reads 35100

###

- assay.method.text: clinical
- condition.notes: human, plasma, oral, 1800 mg, AUC0-t Median, Part 1 Cohort 5, 1800 mg QD, Cycle 1 Day 1
endpoint.name: AUC(0-t)
Respond with the figure and its unit, in that order.

The measured AUC(0-t) associated with CCCCCCCCCCCCCCCC(=O)NCCCC[C@@H](N)C(=O)NCCCNCCCCNCCCN reads 12700 ng·h/mL

###

- assay.method.text: clinical
- condition.notes: human, plasma, oral, AUC0-6 hr Mean, Part 1 Cohort 1, 80 mg QD, Cycle 1 Day 28, +DFMO 500 mg/day
endpoint.name: AUC(0-t) (ng·h/mL)
Please state the figure in ng·h/mL; there is no need to write the unit.

The measured AUC(0-t) associated with CCCCCCCCCCCCCCCC(=O)NCCCC[C@@H](N)C(=O)NCCCNCCCCNCCCN reads 60.5

###

- assay.method.text: clinical
- condition.notes: human, plasma, oral, 400 mg, AUC0-t Mean, Part 1 Cohort 3, 400 mg QD, Day 1
endpoint.name: AUC(0-t) (ng·h/mL)
Please state the figure in ng·h/mL; there is no need to write the unit.

The measured AUC(0-t) associated with CCCCCCCCCCCCCCCC(=O)NCCCC[C@@H](N)C(=O)NCCCNCCCCNCCCN reads 714

###

- assay.method.text: clinical
- condition.notes: human, plasma, oral, 400 mg, AUC0-t Median, Part 1 Cohort 3, 400 mg QD, Day 1
endpoint.name: AUC(0-t) (ng·h/mL)
Please state the figure in ng·h/mL; there is no need to write the unit.

The measured AUC(0-t) associated with CCCCCCCCCCCCCCCC(=O)NCCCC[C@@H](N)C(=O)NCCCNCCCCNCCCN reads 906

###

- assay.method.text: clinical
- condition.notes: human, plasma, oral, 80 mg, Cmax Mean, Part 1 Cohort 1, 80 mg QD, Cycle 1 Day 1
endpoint.name: Cmax (ng/mL)
Please state the figure in ng/mL; there is no need to write the unit.

The measured Cmax associated with CCCCCCCCCCCCCCCC(=O)NCCCC[C@@H](N)C(=O)NCCCNCCCCNCCCN [AMXT 1501, D-lys(palmitoyl)-spermine] reads 11.7

###

- assay.method.text: clinical
- condition.notes: human, plasma, oral, 1200 mg, AUC0-6 hr Median, Part 1 Cohort 4, 1200 mg QD, Cycle 1 Day 14
endpoint.name: AUC(0-t) (ng·h/mL)
Please state the figure in ng·h/mL; there is no need to write the unit.

The measured AUC(0-t) associated with CCCCCCCCCCCCCCCC(=O)NCCCC[C@@H](N)C(=O)NCCCNCCCCNCCCN reads 681
